Entries and their measured melting point follow.

A selection of reference data follows.
# melting point (compound: COc1ccc(C(NC(C)c2cc(F)cc(F)c2)c2cc(N)ccc2OC)cc1 (stereo unspecified) ) is 105 to 106 °C

# melting point (compound: CC1c2cc(F)ccc2-c2ccc(F)cc2N1C(=O)c1ccc(O)cc1 (stereo unspecified) ) is 138 to 140 °C

# melting point (compound: `COC(=O)c1nc(-c2ccc(Cl)c(OC)c2F)nc(O)c1OC` ) is 177 to 179 °C

# melting point (compound: `NOCc1ccn(C(c2ccccc2)(c2ccccc2)c2ccccc2)n1` ) is 105 to 110 °C

# melting point (compound: `COc1ccc(CCN2CCC(N3Cc4cc(Cl)c(S(N)(=O)=O)cc4C3=O)CC2)cc1` ) is 125 to 135 °C

# melting point (compound: `CC(=O)NC[C@H]1CN(c2ccc(C3CCN(C(=O)c4cc5ccccc5[nH]4)CC3)c(F)c2)C(=O)O1` ) is 223 to 225 °C

# melting point (compound: `C=CCN1CN(C(=O)c2c(F)cccc2F)C(=O)N(c2ccc(Cl)cc2)C1` ) is 87 to 88 °C

# melting point (compound: `CC(=O)N1CCN=C1Nc1cc(C(C)C)nn1C(C)C` ) is 139 to 140 °C

# melting point (compound: Clc1ccc(C2CN3C(=N2)Sc2ccccc23)cc1 (stereo unspecified) ) is 143 °C

# melting point (compound: `O=C(Nc1ccc([N+](=O)[O-])cc1)c1ccc(F)cc1` ) is 117 to 118 °C

New cases:
# melting point (compound: `COc1cccc(-c2cc3c(n2-c2ccc(O)c(C(=O)O)c2)CCCC3)c1` ) is 175 to 177 °C

# melting point (compound: `ON=Cc1cccc(OCc2ccccc2)c1` ) is 58 to 59 °C

# melting point (compound: CC(=O)C1CCC2C3CCC4CC(O)C(N5CCSC(C)(C)C5)CC4(C)C3CCC12C (stereo unspecified) ) is 184 to 185 °C

# melting point (compound: CC(C)(C)NCC(O)c1ccc(O)c(NC=O)c1 (stereo unspecified) ) is 195 to 196 °C

# melting point (compound: `CC(C)(C)c1cc(CCc2ccccc2NC(=O)NCCc2ccc(F)cc2)cc(C(C)(C)C)c1O` ) is 177 to 179 °C

# melting point (compound: `COc1cccc(C(C)(C)C(=O)O)c1` ) is 46 to 47 °C

# melting point (compound: `CCOC(=O)c1ccc(-c2ccc(OCCCI)c(-c3ccc4c(c3)C(C)(C)CCC4(C)C)c2)cc1` ) is 118 °C

# melting point (compound: `O=C1C(c2ccccc2)=C(c2ccccc2)C(=O)N1CCc1ccccc1F` ) is 111 to 112 °C

# melting point (compound: `CCC(=O)N1CCC(NC(=O)Nc2ccccc2Cl)CC1` ) is 150 to 157 °C

----------
Entries and their measured melting point follow.

A selection of reference data follows.
# melting point (compound: `CCCCNC(=O)NS(=O)(=O)c1ccc(N2CCC(NC[C@H](O)c3ccc(O)c(NS(C)(=O)=O)c3)CC2)cc1` ) is 100 to 102 °C

# melting point (compound: `CSc1ccc(-c2cnc3ccc(-c4nnc(C)o4)cn23)cc1` ) is 180 to 181 °C

# melting point (compound: CC(CCBr)Oc1ccccc1 (stereo not given) ) is 33 to 36 °C

# melting point (compound: CCCCCCCCCCCCCCCCCC(O)c1cc(C(=O)OCC)ccc1O (stereo not given) ) is 75 °C

# melting point (compound: `COc1ccc(C(=O)Nc2ccc(F)cc2)c2c1oc1ccccc12` ) is 246 °C

# melting point (compound: COc1ccc(C2Sc3cc(Oc4ccc(Cl)cc4)ccc3NC(=O)C2O)cc1 (stereo not given) ) is 243 to 245 °C

# melting point (compound: `CCCc1nn(CC)c2c(=O)n(CCCOc3ccc(SC(C)(C)C(=O)O)cc3)c(C)nc12` ) is 118 to 120 °C

# melting point (compound: `CCCCCCCCCCCCCCCCCC(=O)Oc1cc(C=CC(=O)c2ccccc2)cc([N+](=O)[O-])c1O` ) is 112 to 118 °C

New cases:
# melting point (compound: `CC(C)c1[nH]c(C(=O)Nc2ccc(C(=O)O)cc2)c(C(C)C)c1C(C)C` ) is > 300 °C

# melting point (compound: `O=C(Nc1ccc2cc(CN3CCCC3)ccc2c1)c1ccc(-c2ccc(F)cc2)nc1` ) is 238 to 240 °C

----------
Entries and their measured melting point follow.

A selection of reference data follows.
# melting point (compound: O=C(O)c1ccc(NCC(O)C(O)C(O)C(O)CO)cc1 (stereo not given) ) is 111 to 112 °C

# melting point (compound: `O=C1CCCC(=O)C1=C(S)NCc1ccccc1` ) is 47 to 48 °C

New cases:
# melting point (compound: `CCOCc1nc2cnc3ccc(OCc4ccccc4)cc3c2n1CC(C)(C)O` ) is 138 to 140 °C

# melting point (compound: `COC(=O)c1cccc2c1nc(-c1c(F)cccc1F)n2Cc1c(F)cccc1F` ) is 184 to 186 °C

# melting point (compound: `CC(=NNC(=N)N)c1sc(-c2ccc(-c3ccccc3)cc2)nc1C` ) is 278 to 280 °C

----------
Entries and their measured melting point follow.

# melting point (compound: `CON=C(C#N)c1ccccc1S(N)(=O)=O` ) is 82 to 90 °C

# melting point (compound: Cc1nc(N2CCC(Cc3ccc(OC(F)F)cc3)C2=O)sc1C(=O)NCc1ccccc1 (centres undefined) ) is 132 to 133 °C

# melting point (compound: `c1ccc(NN2Cc3ccccc3C2)nc1` ) is 130 to 131 °C

# melting point (compound: `O=C1Cc2ccccc2Sc2cc(F)c(F)cc21` ) is 110 to 112 °C

New cases:
# melting point (compound: CC(C)C(c1cncnc1C(F)(F)F)N(C)C(=O)Cc1ccccc1 (centres undefined) ) is 106 to 109 °C

# melting point (compound: `CC(C)Nc1cccnc1N1CCN(C(=O)c2ccc(C(=O)N3CCSCC3)cc2)CC1` ) is 163 to 164 °C

# melting point (compound: `COC(=O)CCCc1cc2nc(Cl)ccc2n1S(=O)(=O)c1ccccc1C(F)(F)F` ) is 127 °C

# melting point (compound: `O=C(Nc1ccccc1S(=O)(=O)c1ccccc1)N[C@@H](Cc1ccc(NC(=O)c2c(Br)cncc2Br)cc1)C(=O)O` ) is 231 °C

# melting point (compound: `Cc1cc(N2CCN(C(=O)OC(C)(C)C)CC2)ccc1[N+](=O)[O-]` ) is 145 to 146 °C

----------
MEASURED_QUANTITY: melting point

# melting point (molecule: `CCCC(=O)c1cnc2c(O)cccc2c1Nc1ccccc1C` ) is 113 to 115 °C

# melting point (molecule: `O=C(O)CCc1c(C=C2C(=O)Nc3ccc(Cl)cc32)[nH]c2c1CCCC2` ) is 370 to 384 °C

# melting point (molecule: `O=C(c1ccccc1)c1cnc2c(n1)CCCC2` ) is 61.5 to 63.5 °C

# melting point (molecule: `c1ccc2c(c1)Nc1ccccc1-n1ccnc1-2` ) is 215 to 217 °C

# melting point (molecule: `C=CCNc1nc(C=O)cs1` ) is 106 to 107 °C

Please find the next molecule below.
# melting point (molecule: `O=C(CCc1ccccc1)c1c(O)c2cccnc2n(-c2ccccc2)c1=O` ) is 233 to 234 °C

----------
Entries and their measured melting point follow.

A selection of reference data follows.
# melting point (compound: `Cc1ccccc1C(=O)Nc1ccc(C(=O)N2CCCC(=O)c3cc(Cl)ccc32)c(C)c1` ) is 134 to 142 °C

# melting point (compound: CN(C)CCNc1nc(C2C(=O)Nc3ccc(Br)cc32)c2cn(C)nc2n1 (stereo not drawn) ) is 279 to 289 °C

# melting point (compound: `CCCc1c(SCCCOc2ccc3c(=O)cc(C(=O)OCC)oc3c2CCC)ccc2c(=O)cc(C(=O)OCC)[nH]c12` ) is 168 to 170 °C

# melting point (compound: N#CCCNC(=O)C1CC(CF)(CF)Oc2ccc([N+](=O)[O-])cc21 (stereo not drawn) ) is 137 to 138 °C

# melting point (compound: `Cc1cccc(Cl)c1N1C(=O)CON(C)C1=S` ) is 176 to 178 °C

# melting point (compound: CCOC(=O)C1CC2=C(CO1)C(=O)C(Cl)=CC2=O (stereo not drawn) ) is 83.5 °C

New cases:
# melting point (compound: `O=[N+]([O-])c1c(NCC23CCCN2CCC3)cnc2ccccc12` ) is 95 to 99 °C

# melting point (compound: `Cc1cc(OCc2ccc(-c3ccc(C(F)(F)F)c(F)c3)nc2C)ccc1OC(C)(C)C(=O)O` ) is 175 to 176 °C

# melting point (compound: `Cc1ccc(NCC(=O)Nc2ccc(S(N)(=O)=O)cc2Cl)cc1` ) is 215 to 216 °C
